# Test system: NCI-H522 lung
# test-protocol: NCI-60 one-dose screen, 48 h (100 = growth as untreated, 0 = no growth, -100 = all killed)
# conditions: 10 µM unless noted
Compounds without any hit were thinned out: in the full panel of roughly 83,000, 20% have a hit.
property-measured: growth (%)

compound=c1cnc2[nH]cc(-c3csc(-c4cn(CCCCN5CCCCC5)c5ccccc45)n3)c2c1 readout_units=% reported=98.5
compound="COC1OC(CO)C(O)C(O)[CH]1[Hg][O]C(C)=O (stereo not given)" readout_units=% reported=-42.7
compound=Cn1cc(-c2csc(-c3cn(CCCCN4CCCCC4)c4ccc(F)cc34)n2)c2cccnc21 readout_units=% reported=86.2
compound=CCOP(=O)(Cc1ccc(C#N)cc1)OCC readout_units=% reported=75
compound=CCn1c2ccccc2c2cc(C(=O)c3cccc4c3CCCN4)ccc21 readout_units=% reported=115
compound=O=C(NCCN1CC1)C(=O)NCCN1CC1 readout_units=% reported=62.7
compound=O=[N+]([O-])c1cc(I)cc([N+](=O)[O-])c1 readout_units=% reported=85.5
compound=N#CC1(c2ccccc2)CCN(Cc2ccccc2)CC1 readout_units=% reported=92.6
compound="C1CCC([PH+](C2CCCCC2)C2CCCCC2[PH+](C2CCCCC2)C2CCCCC2)CC1.[Au].[CH-]1CCCCC1CC1CCCC[N-]1 (stereo not given)" readout_units=% reported=-40.7
compound=Clc1ccc(CO/N=C(\Cn2ccnc2)c2ccc(Cl)cc2Cl)c(Cl)c1 readout_units=% reported=-45.2
compound=CC1=C(CNO)C2=C(C)C3(CC3)[C@@](C)(O)C(=O)C2=C1 readout_units=% reported=-7.65
compound=C/C1=C/C(=O)O[C@@H]2C[C@@H](CC[C@H](C)/C=C\C=C\CC1)O[C@@](O)([C@@H]1CSC(=O)N1CO)C2 readout_units=% reported=-52.3
compound="CCC1(C)CC(CCNCc2ccccc2O)(c2ccc(C)cc2)CCO1 (stereo not given)" readout_units=% reported=108
compound=C[Se]C(=O)c1ccccc1OC(C)=O readout_units=% reported=63.8
compound=CC[C@H](C)[C@H](NC(=O)NC(C)(C)C)C(=O)N(C)[C@H](C[C@@H](OC(C)=O)c1nc(C(=O)N[C@@H](Cc2ccccc2)C[C@H](C)C(=O)OC)cs1)C(C)C readout_units=% reported=14.4
compound="CC1CN1CCCCN1CC1C (stereo not given)" readout_units=% reported=66.4
compound=COc1cc(/C=C\c2cc(OC)c(OC)c(OC)c2)cc(N/C=C\C(=O)c2cc(OC)c(OC)c(OC)c2)c1OC readout_units=% reported=6.46
compound=COC(=O)[C@@H](C)C[C@H](Cc1ccccc1)NC(=O)c1csc([C@@H](C[C@H](C(C)C)N(C)C(=O)[C@H](C)NC(=O)[C@H]2CCCN2C)OC(C)=O)n1 readout_units=% reported=-10.7
compound=COc1ccc(Nc2ccc([N+](=O)[O-])cc2[N+](=O)[O-])cc1CN(CCCl)CCCl readout_units=% reported=21.1
compound=COc1ccc(-n2c(C)nc3cc(OC)c(OC)cc3c2=O)cc1OC readout_units=% reported=101

----------
Known growth of a selection of compounds
# Tested on: OVCAR-3 ovarian
# test-protocol: NCI-60 one-dose screen, 48 h (100 = growth as untreated, 0 = no growth, -100 = all killed)
# conditions: 10 µM unless noted
About 83,000 compounds went through this panel and 20% of them were active in at least one assay; those are over-represented in the sample as a whole.
property-measured: growth (%)

compound_smiles=COc1ccc(/C=C\c2cc(OC)c(OC)c(OC)c2)cc1OCC(=O)Nc1nc2ccc(F)cc2s1 property_measured=growth reported=48.2
compound_smiles=Fc1c[c-]c(-c2ccccn2)c(F)c1.[CH3-].[Pt+2].c1ccc([PH+](c2ccccc2)c2ccccn2)cc1 property_measured=growth reported=-22.2
compound_smiles=CC1(C)C(C(=O)c2cn(CCCCF)c3ccccc23)C1(C)C property_measured=growth reported=105
compound_smiles=CC(=O)OC[C@]1(C)C=C2C(=O)[C@](C)(O)C3(CC3)C(C)=C2[C@H]1OC(=O)N(C)CCN(C)C(=O)OC(C)(C)C property_measured=growth reported=-8.01
compound_smiles=CC(=O)O[C@H]1CC[C@]2(C)[C@H]3CC[C@]4(C)[C@@H](OC(C)=O)CC[C@H]4[C@@H]3[C@@H](C)[C@]2(O)C1 property_measured=growth reported=127
compound_smiles=COC(=O)[C@H](Cc1ccccc1)NC(=O)c1csc([C@@H](C[C@H](C(C)C)N(C)C(=O)[C@@H](NC(=O)[C@H]2CCCCN2C)C2CC2)OC(C)=O)n1 property_measured=growth reported=-21.4
compound_smiles=c1ccc(Nc2nc(-c3ccccc3)c[se]2)cc1 property_measured=growth reported=93.5
compound_smiles=O=C(CCl)c1ccc([N+](=O)[O-])o1 property_measured=growth reported=-100
compound_smiles=COc1ccc2c(c1)c(-c1nc(-c3c[nH]c4ncccc34)cs1)cn2CCCCN1CCCCC1 property_measured=growth reported=-71.4

----------
# Tested on: HT29 colon
# test-protocol: NCI-60 one-dose screen, 48 h
# conditions: 10 µM unless noted
Compounds without any hit were thinned out: in the full panel of roughly 83,000, 20% have a hit. The source made the active and inactive calls. Rule for the calls: active = growth percent below 10; inactive = the rest.
Labels: YES = active, NO = inactive

compound="C[S+]1C=Cc2ccccc2C1c1ccc(Cl)cc1 (stereo not given)" classification=NO
compound=C[C@]12C[C@@H](CO)[C@H](O)C[C@@H]1CC[C@@H]1[C@@H]2CC[C@]2(C)[C@@H](O)CC[C@@H]12 classification=NO
compound=C/C(CC(C)(C)N1CC1)=N\NC(=O)Nc1cccc2ccccc12 classification=NO
compound=CCC1(C(C)C)C(=O)NC(=S)NC1=O classification=NO
compound=COC(=O)C12CC(NC(=O)c3csc([C@@H](C[C@H](C(C)C)N(C)C(=O)[C@@H](NC(=O)[C@H]4CCCCN4C)C4CC4)OC(C)=O)n3)(C1)C2 classification=YES
compound=CC1(C)N=C(N)N=C(N)N1c1ccc(CCCCc2ccc(Cl)c(S(=O)(=O)F)c2)c(Cl)c1 classification=NO
compound=COc1ccc(S(=O)(=O)Nc2c(/C=C\c3cc(OC)c(OC)c(OC)c3)ccc(OC)c2O)cc1OC classification=NO
compound="CN1CC(=O)N(O)C1(C)c1cccnc1 (stereo not given)" classification=NO
compound=CCC[CH2][Sn]([CH2]CCC)([CH2]CCC)[O]c1ccc(Cl)cc1Cl classification=YES
compound=O=c1[nH]c2ccc([N+](=O)[O-])cc2c(=O)o1 classification=NO

----------
# Tested on: CAKI-1 renal
# test-protocol: NCI-60 one-dose screen, 48 h
# conditions: 10 µM unless noted
About 83,000 compounds went through this panel and 20% of them were active in at least one assay; those are over-represented in the sample as a whole. The source made the active and inactive calls. How the source made its calls: active means growth percent below 10; inactive means the rest.
Labels: active, inactive

compound=CCOP(=O)(Nc1ccc2c(c1)/C(=N/NC(N)=S)c1ccccc1-2)OCC classification=inactive
compound=COc1cc(C=Nc2cc(Cl)cc(Cl)c2)ccc1N(CCCl)CCCl classification=inactive
compound="CCC1CC(O)c2c(O)c3c(c(O)c2C1O)C(=O)c1cccc(O)c1C3=O (stereo not given) (tested in a mixture with another compound)" classification=active
compound=CCC(=O)Nc1ccc(Cl)c(Cl)c1 classification=inactive
compound=COc1ccc(N(CC(=O)NCCC[Te]c2ccccc2)C(=O)CNC(=O)OC(C)(C)C)cc1 classification=inactive
compound=COC(=O)[C@@]1(O)C[C@H]2O[C@]1(C)n1c3ccccc3c3c4c(c5c6ccccc6n2c5c31)C(=O)NC4 classification=active
compound=Oc1c(O)c(Cl)c(Cl)c(Cl)c1Cl classification=inactive
compound=Nc1ccc(OCCNS(=O)(=O)c2cccc(S(=O)(=O)F)c2)c(Cl)c1 classification=inactive
compound="CCCCOc1ccc(C(N)Cc2ccccc2)cc1 (stereo not given)" classification=inactive
compound=CN(C)C(=O)Oc1ccc(Br)cc1 classification=inactive

----------
# System: UO-31 renal
# test-protocol: NCI-60 one-dose screen, 48 h (100 = growth as untreated, 0 = no growth, -100 = all killed)
# conditions: 10 µM unless noted
Compounds without any hit were thinned out: in the full panel of roughly 83,000, 20% have a hit.
Known growth of a selection of compounds
property-measured: growth (%)

compound=COC(=O)[C@@]1(C)CC[C@]2(C)CC[C@]3(C)C4=CC=C5C(=CC(=O)C(O)=C5C)[C@]4(C)CC[C@@]3(C)[C@@H]2C1 property_measured=growth readout_units=% reported=-99.4
compound=C#Cc1ccc2c(c1)C(c1ccccc1F)=NCC(=O)N2C property_measured=growth readout_units=% reported=72.5
compound="CC(=O)O[C@H]1C(=O)[C@@]2(C)[C@H]([C@H](OC(=O)c3ccccc3)[C@]3(O)C[C@H](OC(=O)[C@H](OC(=O)OCC4COC(C)(C)O4)[C@@H](NC(=O)c4ccccc4)c4ccccc4)C(C)=C1C3(C)C)[C@]1(OC(C)=O)CO[C@@H]1C[C@@H]2O (stereo partly specified)" property_measured=growth readout_units=% reported=71.3
compound=CC(=O)[O][Hg][O]C(C)=O property_measured=growth readout_units=% reported=96.9
compound=Cc1cc(C)cc(Nc2nc3c(s2)CC[C@@]2(C)C3=CC[C@@H]3[C@@H]2CC[C@]2(C)C(=O)CC[C@@H]32)c1 property_measured=growth readout_units=% reported=59.4
compound="CCC1CN1CCCCN1CC1CC (stereo unspecified)" property_measured=growth readout_units=% reported=92.6
compound=CC1(C)N=C(N)N=C(N)N1c1cccc(CCCCc2ccc(Cl)c(S(=O)(=O)F)c2)c1 property_measured=growth readout_units=% reported=92.4
compound=Nc1cc2nc3ccccc3nc2cc1N property_measured=growth readout_units=% reported=74.2
compound=COc1cccc2c1c(C(=O)C(=O)Nc1cc(C)no1)cn2Cc1ccc(F)cc1 property_measured=growth readout_units=% reported=57.5
compound="O=C(Nc1ccc([As]=[As]c2ccc(NC(=O)c3ccccc3)cc2)cc1)c1ccccc1 (stereo unspecified)" property_measured=growth readout_units=% reported=-96.7
compound=COc1cc(NCCCN=C(N)N)c2ncccc2c1 property_measured=growth readout_units=% reported=89.4
compound=CCCCCCCC[N+](C)(CCCCCCCC)CCCCCCCC property_measured=growth readout_units=% reported=-100
compound=Clc1cccc(NCOOC2(OOCNc3cccc(Cl)c3)CCCCCC2)c1 property_measured=growth readout_units=% reported=-47.3
compound=COc1ccc(Nc2ccnc3cc(Cl)ccc23)cc1CN(CCCl)CCCl property_measured=growth readout_units=% reported=-42.2
compound=CNC(=O)Oc1ccc(N(C)C)cc1C(C)C property_measured=growth readout_units=% reported=88.7
compound="O=[N+]([O-])c1ccc([Se]C2CCCCC2Cl)c([N+](=O)[O-])c1 (stereo unspecified)" property_measured=growth readout_units=% reported=-88.3
compound=COc1cccc2c1c(C(=O)C(=O)Nc1ccn[nH]1)cn2Cc1ccc(F)cc1 property_measured=growth readout_units=% reported=89
compound=CCc1ccccc1[C@@H]1C[C@]2(C)CCO[C@@H]2OO1 property_measured=growth readout_units=% reported=91.5
compound=O=C(N/N=C\c1ccc(N(CCCl)CCCl)cc1Cl)c1cccnc1 property_measured=growth readout_units=% reported=88
compound="COC1CC2c3ccccc3C1C(C)=[N+]2C (stereo unspecified)" property_measured=growth readout_units=% reported=94
compound="CC1CN1CCCCN1CC1C (stereo unspecified)" property_measured=growth readout_units=% reported=98.4
compound=CCCCCCCCOC(=O)CCN1CC1 property_measured=growth readout_units=% reported=92.8
compound=C[Se]C(=O)c1ccccc1OC(C)=O property_measured=growth readout_units=% reported=33
compound="CC(C)OC(=O)[C@H](C)NP(=O)(Oc1ccccc1)C1CCCN(O)C1=O (stereo partly specified)" property_measured=growth readout_units=% reported=86.2
compound=CC(=O)/C=C/c1ccc2c(c1)OCO2 property_measured=growth readout_units=% reported=100
compound="O=C1Nc2ccccc2C2c3cccn3-c3ccccc3CN12 (stereo unspecified)" property_measured=growth readout_units=% reported=60
compound="O=C1C2CC=CCC2C(=O)N1SC(Cl)(Cl)Cl (stereo unspecified)" property_measured=growth readout_units=% reported=4.07
compound=O=C1NC(=O)C(=Cc2cn(CCCCCCn3c4ccccc4c(=O)c4ccccc43)c3ccccc23)C(=O)N1 property_measured=growth readout_units=% reported=63.9
compound=Cn1cc(C2=C(c3cn(C4CCN(Cc5ccccn5)CC4)c4ccccc34)C(=O)NC2=O)c2ccccc21 property_measured=growth readout_units=% reported=48.4
compound="O=C(CC1(O)C(=O)N(Cc2ccccc2)c2ccc(Br)cc21)c1ccc(C(=O)NCC2CCC3(CC2)OOC2(CCCCC2)OO3)cc1 (stereo unspecified)" property_measured=growth readout_units=% reported=-73.3
compound=c1cnc2[nH]cc(-c3csc(-c4cn(CCCCN5CCCCC5)c5ccccc45)n3)c2c1 property_measured=growth readout_units=% reported=49.2
compound="COC(=O)[C@H](Cc1c[nH]c2ccccc12)NC(=O)[C@@H](OC)[C@@H]1Cc2cc3cc(OC4CC(OC5CC(O)C(O)C(C)O5)C(O)C(C)O4)c(C)c(O)c3c(O)c2C(=O)[C@H]1OC1CC(OC2CC(OC3CC(C)(O)C(O)C(C)O3)C(O)C(C)O2)C(O)C(C)O1 (stereo partly specified)" property_measured=growth readout_units=% reported=-6.63
compound=COc1ccc(C/C(C)=C(\c2ccc(OCCN3CCOCC3)cc2)c2ccc(OC(=O)Cc3ccccc3)cc2)cc1 property_measured=growth readout_units=% reported=-84.6
compound=CC1=C(CCCNS(C)(=O)=O)C2=C(C)C3(CC3)[C@@](C)(O)C(=O)C2=C1 property_measured=growth readout_units=% reported=-32.6
compound=COC(=O)[C@@H](C)C[C@H](Cc1ccc(F)cc1)NC(=O)c1csc([C@@H](C[C@H](C(C)C)N(C)C(=O)[C@@H](NC(=O)[C@H]2CCCCN2C)C2CC2)OC(C)=O)n1 property_measured=growth readout_units=% reported=55.8
compound=CCn1cnc2c(Nc3cccc(Cl)c3)nc(N[C@@H]3CCCC[C@@H]3N)nc21 property_measured=growth readout_units=% reported=-13.3
compound=COC(=O)[C@@H](C)C[C@H](Cc1ccccc1)NC(=O)c1csc([C@@H](C[C@H](C(C)C)N(C)C(=O)[C@@H](NC(=O)[C@H]2CCCCN2C)C2CCCCC2)OC(C)=O)n1 property_measured=growth readout_units=% reported=31.7
compound=NC(CCl)CCl property_measured=growth readout_units=% reported=93.3
compound="CC(CC1CCCCC1)NCc1ccccc1 (stereo unspecified)" property_measured=growth readout_units=% reported=66.2
compound=CCC(=O)Nc1ccc(Cl)c(Cl)c1 property_measured=growth readout_units=% reported=89
compound="CCC(CC)CC1(C)CC2(C)CCOC2OO1 (stereo unspecified)" property_measured=growth readout_units=% reported=88.8

Data origin: PubChem BioAssay (NCI)
